# TARGET_OR_SYSTEM: T1, Recombinant Human DLL4 (delta-like protein 4) (human, UniProt Q9NR61 27-524)
# T1 construct: Bought recombinant human DLL4 coated on the ELISA plate; also called rHuman DLL4
# EXPERIMENTAL_PROTOCOL: ELISA, DLL4 coated on plate, Fab at 12.5 nM (2-fold dilution series), absorbance at 450 nm
Known ELISA signal of a selection of binders
Answer with a bare number; do not write a unit.

Fab VH5-51_IGHD5-18*01>3_IGHJ4*01 G100K/G104T G24A/S28R/G35V (KT ARV) & V3-4_IGLJ1*01 V91L/S96P S52I (Fab, V domains shown, Fab; Expressed in E. coli with CH1 (plasmid A, His6 and Flag tags) and lambda CL (plasmid E); also called G100K/G104T G24A/S28R/G35V & V91L/S96P S52I) VH: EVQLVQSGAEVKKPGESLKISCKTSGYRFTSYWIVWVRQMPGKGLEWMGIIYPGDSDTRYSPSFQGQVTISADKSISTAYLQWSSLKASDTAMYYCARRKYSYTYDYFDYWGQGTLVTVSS VL: QTVVTQEPSFSVSPGGTVTLTCGLSSGSVSTSYYPSWYQQTPGQAPRTLIYITNTRSSGVPDRFSGSILGNKAALTITGAQADDESDYYCLLYMGPGISYVFGTGTKVTVL | 0.4
Fab VH5-51_IGHD5-18*01>3_IGHJ4*01 G100K/G104T G24T/S28R/G35V (KT TRV) & V3-4_IGLJ1*01 V91L/S96P (LP) (Fab, V domains shown, Fab; Expressed in E. coli with CH1 (plasmid A, His6 and Flag tags) and lambda CL (plasmid E); also called H:KT TRV & L:LP) VH: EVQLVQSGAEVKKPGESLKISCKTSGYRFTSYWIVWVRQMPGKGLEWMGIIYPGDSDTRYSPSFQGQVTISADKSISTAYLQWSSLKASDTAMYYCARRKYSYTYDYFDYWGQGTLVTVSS VL: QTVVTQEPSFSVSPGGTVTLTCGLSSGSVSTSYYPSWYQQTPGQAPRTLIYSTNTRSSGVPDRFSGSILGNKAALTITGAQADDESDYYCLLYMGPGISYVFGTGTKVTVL | 0.45
Fab VH5-51_IGHD5-18*01>3_IGHJ4*01 G100K/G104T G24T/S28R/G35V (KT TRV) & V3-4_IGLJ1*01 V91L/S96P S52L (Fab, V domains shown, Fab; Expressed in E. coli with CH1 (plasmid A, His6 and Flag tags) and lambda CL (plasmid E); also called H:KT TRV & L:LP S52L) VH: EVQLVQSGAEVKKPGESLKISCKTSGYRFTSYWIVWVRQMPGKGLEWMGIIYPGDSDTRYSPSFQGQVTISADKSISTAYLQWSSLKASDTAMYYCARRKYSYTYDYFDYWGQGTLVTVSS VL: QTVVTQEPSFSVSPGGTVTLTCGLSSGSVSTSYYPSWYQQTPGQAPRTLIYLTNTRSSGVPDRFSGSILGNKAALTITGAQADDESDYYCLLYMGPGISYVFGTGTKVTVL | 0.43

Incoming: Please report the recorded ELISA signal for Fab VH5-51_IGHD5-18*01>3_IGHJ4*01 G100K/G104T G24A/S28R/G35V (KT ARV) & V3-4_IGLJ1*01 V91L/S96P S52P (Fab, V domains shown, Fab; Expressed in E. coli with CH1 (plasmid A, His6 and Flag tags) and lambda CL (plasmid E); also called G100K/G104T G24A/S28R/G35V & V91L/S96P S52P) VH: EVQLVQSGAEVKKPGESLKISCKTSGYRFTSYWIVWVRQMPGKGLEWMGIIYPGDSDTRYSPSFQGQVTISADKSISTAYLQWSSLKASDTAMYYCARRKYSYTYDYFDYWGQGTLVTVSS VL: QTVVTQEPSFSVSPGGTVTLTCGLSSGSVSTSYYPSWYQQTPGQAPRTLIYPTNTRSSGVPDRFSGSILGNKAALTITGAQADDESDYYCLLYMGPGISYVFGTGTKVTVL .
Outgoing: 0.43

Incoming: What does the data say about its ELISA signal? Entry: Fab VH5-51_IGHD5-18*01>3_IGHJ4*01 G100K/G104T G24L/S28R/G35V (KT LRV) & V3-4_IGLJ1*01 V91L/S96P S52Q (Fab, V domains shown, Fab; Expressed in E. coli with CH1 (plasmid A, His6 and Flag tags) and lambda CL (plasmid E); also called G100K/G104T G24L/S28R/G35V & V91L/S96P S52Q) VH: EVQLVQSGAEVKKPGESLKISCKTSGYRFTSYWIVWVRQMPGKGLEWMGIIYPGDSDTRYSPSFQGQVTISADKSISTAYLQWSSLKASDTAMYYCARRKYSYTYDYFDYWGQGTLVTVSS VL: QTVVTQEPSFSVSPGGTVTLTCGLSSGSVSTSYYPSWYQQTPGQAPRTLIYQTNTRSSGVPDRFSGSILGNKAALTITGAQADDESDYYCLLYMGPGISYVFGTGTKVTVL
Outgoing: 0.47

Incoming: So what's the measured ELISA signal for this one? Fab VH5-51_IGHD5-18*01>3_IGHJ4*01 G100K/G104T G24L/S28R/G35V (KT LRV) & V3-4_IGLJ1*01 V91L/S96P S52F (Fab, V domains shown, Fab; Expressed in E. coli with CH1 (plasmid A, His6 and Flag tags) and lambda CL (plasmid E); also called G100K/G104T G24L/S28R/G35V & V91L/S96P S52F) VH: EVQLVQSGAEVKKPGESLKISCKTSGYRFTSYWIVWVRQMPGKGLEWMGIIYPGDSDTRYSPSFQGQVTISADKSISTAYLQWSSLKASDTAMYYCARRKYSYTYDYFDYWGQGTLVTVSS VL: QTVVTQEPSFSVSPGGTVTLTCGLSSGSVSTSYYPSWYQQTPGQAPRTLIYFTNTRSSGVPDRFSGSILGNKAALTITGAQADDESDYYCLLYMGPGISYVFGTGTKVTVL
Outgoing: 0.42
